Reported % B7 binding activity values for a set of binders
Molecular target: T1, B7 antigen (B7-1, CD80) expressed on cells (human, UniProt P33681 35-288)
T1 construct: whole, on cells; Stably transfected CHO cells; in the MLR and IgM assays the B7 antigen of the stimulating B cells; also called B7^+ CHO cells; B7-1 positive CHO cells
T1 sequence (looked up): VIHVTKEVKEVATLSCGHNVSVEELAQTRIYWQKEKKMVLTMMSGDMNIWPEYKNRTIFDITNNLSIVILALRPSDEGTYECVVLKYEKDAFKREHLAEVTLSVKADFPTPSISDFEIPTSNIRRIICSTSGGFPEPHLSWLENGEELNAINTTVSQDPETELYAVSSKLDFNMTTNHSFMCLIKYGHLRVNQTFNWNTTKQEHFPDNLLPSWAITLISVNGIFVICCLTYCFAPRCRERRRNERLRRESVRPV
Assay: B7-1+ CHO cell enzyme immunoassay; binding activity relative to CTLA4Ig, from the concentrations giving the same A450
readout: % B7 binding activity

* CTLA4/CD28Ig hybrid fusion protein HS4-A (Fc fusion, not shown: a dimerising Fc or GST, mature numbering, not counted on the entries) NKILVKQSPMLVAYDNAYNLSCKYSYNLFSREFRASLHKGLDSAVEVCVVYGNYSQQLQVYSKTGFNCDGKLGNESVTFYLQNLYVNQTDIYFCKIELMYPPPYYLGIGNGTQIHVKGKHLCPS | 2%
* CTLA4/CD28Ig hybrid fusion protein HS4 (Fc fusion, not shown: a dimerising Fc or GST, mature numbering, not counted on the entries) NKILVKQSPMLVAYDNAYNLSCKYSYNLFSREFRASLHKGLDSAVEVCVVYGNYSQQLQVYSKTGFNCDGKLGNESVTFYLQNLYVNQTDIYFCKIELMYPPPYYLGIGNGTQIYVIDPEPCPDSD | 16%
* CTLA4/CD28Ig hybrid fusion protein HS1 (Fc fusion, not shown: a dimerising Fc or GST, mature numbering, not counted on the entries) NKILVKQSPMLVAYDNAYNLSCKYASPGKATEVRVTVLRQADSQVTEVCAATYMMGNELTFLDDSICTGTSSGNQVNLTIQGLRAMDTGLYICKVEVMYPPPYLDNEKSNGTIIHVKGKHLCPS | < 0.1%
* CTLA4/CD28Ig hybrid fusion protein HS2 (Fc fusion, not shown: a dimerising Fc or GST, mature numbering, not counted on the entries) MHVAQPAVVLASSRGIASFVCKYSYNLFSREFRASLHKGLDSAVEVCVVYGNYSQQLQVYSKTGFNCDGKLGNESVTFYLQNLYVNQTDIYFCKIELMYPPPYYLGIGNGTQIYVIDPEPCPDSD | 27%
* CTLA4/CD28Ig hybrid fusion protein HS6 (Fc fusion, not shown: a dimerising Fc or GST, mature numbering, not counted on the entries) MHVAQPAVVLASSRGIASFVCEYSYNLFSREVRVTVLRQADSQVTEVCAATYMMGNELTFLDDSICTGTSSGNQVNLTIQGLRAMDTGLYICKVELMYPPPYYLGIGNGTQIYVIDPEPCPDSD | 20%
* CTLA4/CD28Ig hybrid fusion protein HS3 (Fc fusion, not shown: a dimerising Fc or GST, mature numbering, not counted on the entries) MHVAQPAVVLASSRGIASFVCEYASPGKATEVRVTVLRQADSQVTEVCAATYMMGNELTFLDDSICTGTSSGNQVNLTIQGLRAMDTGLYICKVEVMYPPPYLDNEKSNGTIIHVKGKHLCPS | < 0.1%
